Molecular target: PDE type VI (Bos taurus, UniProt P11541+P23439)
Sequence (P11541 2-856): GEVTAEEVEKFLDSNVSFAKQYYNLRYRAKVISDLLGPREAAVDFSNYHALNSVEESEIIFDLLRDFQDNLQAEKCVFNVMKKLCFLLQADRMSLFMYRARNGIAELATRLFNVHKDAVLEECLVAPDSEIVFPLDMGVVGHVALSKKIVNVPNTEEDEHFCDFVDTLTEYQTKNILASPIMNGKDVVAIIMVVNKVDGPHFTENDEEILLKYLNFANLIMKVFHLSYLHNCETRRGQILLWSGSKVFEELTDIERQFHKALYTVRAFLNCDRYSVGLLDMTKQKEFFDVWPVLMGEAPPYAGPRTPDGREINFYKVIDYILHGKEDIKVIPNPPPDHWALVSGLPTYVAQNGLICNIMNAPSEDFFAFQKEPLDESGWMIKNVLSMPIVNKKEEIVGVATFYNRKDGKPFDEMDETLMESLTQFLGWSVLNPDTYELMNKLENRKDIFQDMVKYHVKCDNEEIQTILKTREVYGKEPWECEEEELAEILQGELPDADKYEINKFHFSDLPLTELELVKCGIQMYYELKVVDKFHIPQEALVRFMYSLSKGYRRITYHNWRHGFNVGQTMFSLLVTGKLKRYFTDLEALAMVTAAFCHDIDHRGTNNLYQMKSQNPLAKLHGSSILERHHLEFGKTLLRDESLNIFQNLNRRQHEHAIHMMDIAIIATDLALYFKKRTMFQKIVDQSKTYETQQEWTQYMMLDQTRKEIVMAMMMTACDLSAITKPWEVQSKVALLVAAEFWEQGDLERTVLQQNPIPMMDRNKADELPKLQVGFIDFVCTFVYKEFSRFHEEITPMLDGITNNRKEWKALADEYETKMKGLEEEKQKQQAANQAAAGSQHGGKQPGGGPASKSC
Sequence (P23439 2-850): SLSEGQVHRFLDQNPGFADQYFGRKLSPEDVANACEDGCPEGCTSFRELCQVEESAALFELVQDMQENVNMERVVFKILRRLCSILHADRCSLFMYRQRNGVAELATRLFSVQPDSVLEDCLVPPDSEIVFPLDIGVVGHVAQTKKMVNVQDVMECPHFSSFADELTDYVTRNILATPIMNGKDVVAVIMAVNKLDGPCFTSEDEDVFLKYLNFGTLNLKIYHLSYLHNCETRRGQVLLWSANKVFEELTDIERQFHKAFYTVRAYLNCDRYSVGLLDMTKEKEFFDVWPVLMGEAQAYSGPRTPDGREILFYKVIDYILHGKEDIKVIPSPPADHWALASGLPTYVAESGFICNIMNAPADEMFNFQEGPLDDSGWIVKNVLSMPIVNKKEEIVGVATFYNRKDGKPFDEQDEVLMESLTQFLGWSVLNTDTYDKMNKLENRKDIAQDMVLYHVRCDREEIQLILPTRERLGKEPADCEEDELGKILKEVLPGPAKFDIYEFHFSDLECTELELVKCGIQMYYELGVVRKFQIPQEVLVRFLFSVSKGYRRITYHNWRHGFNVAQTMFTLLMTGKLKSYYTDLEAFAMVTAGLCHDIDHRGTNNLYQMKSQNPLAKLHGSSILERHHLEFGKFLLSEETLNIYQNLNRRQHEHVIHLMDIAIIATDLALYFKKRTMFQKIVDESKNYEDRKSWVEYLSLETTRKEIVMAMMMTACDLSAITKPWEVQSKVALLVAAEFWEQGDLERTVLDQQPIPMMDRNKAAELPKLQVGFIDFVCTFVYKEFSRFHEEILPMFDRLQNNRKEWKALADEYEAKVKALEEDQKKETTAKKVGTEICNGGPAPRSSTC
Assay: biochemical
pIC50: −log10 of the molar value.

{"compound": "O=c1c(Cc2cccnc2)cn2c3c(cc(OCc4ccncc4)cc13)Sc1ccc(Br)cc1-2 [Example 43]", "pIC50": 7.44}
{"compound": "O=c1c(Cc2cccnc2)cn2c3c(cc(OCc4cccnc4)cc13)Sc1ccc(Br)cc1-2 [Example 39]", "pIC50": 7.21}
{"compound": "O=c1c(Cc2cccnc2)cn2c3cc(Br)ccc3c(=O)c3cc(OCc4cccnc4)cc1c32 [Example 35]", "pIC50": 7.82}
{"compound": "CC(C)N(CCOc1cc2c3c(c1)c(=O)c(Cc1cccnc1)cn3-c1cc(Br)ccc1S2)C(C)C [Example 51]", "pIC50": 6.74}

----------
Assay read-out IC50; system under study: PDE type V (Canis lupus familiaris, UniProt O77746).
measurement_type: IC50 (nM)

{"input_smiles": "CC(C)N(CCOc1cc2c3c(c1)c(=O)c(Cc1cccnc1)cn3-c1cc(Br)ccc1S2)C(C)C", "target_of_assay": "PDE type V (Canis lupus familiaris, UniProt O77746)", "reported_result": 11}
{"input_smiles": "O=c1c(Cc2cccnc2)cn2c3c(cc(OCc4cccnc4)cc13)Sc1ccc(Br)cc1-2", "target_of_assay": "PDE type V (Canis lupus familiaris, UniProt O77746)", "reported_result": 3.8}
{"input_smiles": "O=c1c(Cc2cccnc2)cn2c3cc(Br)ccc3c(=O)c3cc(OCc4cccnc4)cc1c32", "target_of_assay": "PDE type V (Canis lupus familiaris, UniProt O77746)", "reported_result": 1.8}
{"input_smiles": "O=c1c(Cc2cccnc2)cn2c3c(cc(OCc4ccncc4)cc13)Sc1ccc(Br)cc1-2", "target_of_assay": "PDE type V (Canis lupus familiaris, UniProt O77746)", "reported_result": 2.8}

----------
The compounds listed here are annotated with their melting point.

{"input_smiles": "O=c1c(Cc2cccnc2)cn2c3c(cc(OCc4cccnc4)cc13)Sc1ccc(Br)cc1-2", "melting point": "170.8 to 172.1 °C"}
{"input_smiles": "COc1cc2c3c(c1)c(=O)c(Cc1cccnc1)cn3-c1cc(Br)ccc1S2", "melting point": "185.7 to 187.4 °C"}
{"input_smiles": "Cc1cn2c3c(cc(O)cc3c1=O)Sc1ccc(Br)cc1-2", "melting point": "> 300 °C"}
{"input_smiles": "O=c1c(Cc2cccnc2)cn2c3c(cc(OCc4ccccn4)cc13)Sc1ccc(Br)cc1-2", "melting point": "94.6 to 96.4 °C"}
{"input_smiles": "COc1cc2c(=O)c(Cc3cccnc3)cn3c4cc(Br)ccc4c(=O)c(c1)c23", "melting point": "247.5 to 251.1 °C"}
{"input_smiles": "CN(C)CCCOc1cc2c3c(c1)c(=O)c(Cc1cccnc1)cn3-c1cc(Br)ccc1S2", "melting point": "160.3 to 163.3 °C"}
{"input_smiles": "O=c1c(Cc2cccnc2)cn2c3cc(Br)ccc3c(=O)c3cc(O)cc1c32", "melting point": "> 300 °C"}
{"input_smiles": "O=c1c(Cc2cccnc2)cn2c3c(cc(OCCN4CCCCC4)cc13)Sc1ccc(Br)cc1-2", "melting point": "166.5 to 169 °C"}

----------
Molecular target: PDE type III (Canis lupus familiaris)
Sequence (A0A8I3NYE0 1-1135): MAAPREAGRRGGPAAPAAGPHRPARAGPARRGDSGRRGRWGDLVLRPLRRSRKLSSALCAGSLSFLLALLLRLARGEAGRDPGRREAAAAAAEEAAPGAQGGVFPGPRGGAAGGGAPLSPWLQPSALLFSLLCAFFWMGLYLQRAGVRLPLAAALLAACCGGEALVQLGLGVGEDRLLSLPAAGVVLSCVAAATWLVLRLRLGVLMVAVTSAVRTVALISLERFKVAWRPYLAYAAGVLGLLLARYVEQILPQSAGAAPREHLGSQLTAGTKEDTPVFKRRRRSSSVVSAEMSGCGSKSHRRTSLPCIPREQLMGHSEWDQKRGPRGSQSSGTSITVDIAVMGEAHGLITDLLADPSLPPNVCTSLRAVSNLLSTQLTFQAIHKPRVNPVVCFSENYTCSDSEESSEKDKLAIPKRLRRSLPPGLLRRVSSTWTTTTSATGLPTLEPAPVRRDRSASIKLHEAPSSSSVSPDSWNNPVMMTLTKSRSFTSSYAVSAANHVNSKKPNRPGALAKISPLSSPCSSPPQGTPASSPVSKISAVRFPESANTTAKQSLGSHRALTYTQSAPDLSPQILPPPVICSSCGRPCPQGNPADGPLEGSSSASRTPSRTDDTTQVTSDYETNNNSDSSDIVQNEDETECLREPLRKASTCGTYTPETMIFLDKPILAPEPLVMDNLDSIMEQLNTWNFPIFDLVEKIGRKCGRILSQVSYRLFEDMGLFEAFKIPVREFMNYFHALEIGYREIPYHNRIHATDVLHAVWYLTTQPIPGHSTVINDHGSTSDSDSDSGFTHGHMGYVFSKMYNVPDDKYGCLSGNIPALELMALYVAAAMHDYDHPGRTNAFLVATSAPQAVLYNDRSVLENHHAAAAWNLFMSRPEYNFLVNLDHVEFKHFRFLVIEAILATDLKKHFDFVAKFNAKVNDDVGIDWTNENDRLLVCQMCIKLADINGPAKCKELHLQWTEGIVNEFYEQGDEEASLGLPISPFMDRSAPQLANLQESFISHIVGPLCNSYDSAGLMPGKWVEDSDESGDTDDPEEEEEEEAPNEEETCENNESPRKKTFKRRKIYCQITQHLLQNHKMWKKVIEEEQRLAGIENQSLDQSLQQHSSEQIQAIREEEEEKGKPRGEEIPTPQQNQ
Counter-ions that a name gives are not always drawn.

{"compound": "CCCc1nn(C)c2c(=O)[nH]c(-c3cc(S(=O)(=O)N4CCN(C)CC4)ccc3OCC)nc12 [Sildenafil, citrate]", "target_of_assay": "PDE type III (Canis lupus familiaris)", "IC50 / µM": 13}

----------
Test: in vivo
Settings: male, Wistar, rat, plasma, inhaled or intranasal, 0.3 mg/kg

{"compound": "CS(=O)(=O)O.CS(=O)(=O)O.O=c1c(Cc2cccnc2)cn2c3c(cc(OCc4cccnc4)cc13)Sc1ccc(Br)cc1-2 [Example 81]", "MRT": "48 to 60 min"}

----------
The molecules listed here are annotated with their melting point.

{"input_smiles": "O=c1ccn2c3cnccc3c3cccc1c32", "melting point": "211.3 °C (dec.)"}
{"input_smiles": "O=c1c(Cc2cccnc2)cn2c3c(cc(OCCCO)cc13)Sc1ccc(Br)cc1-2", "melting point": "189.1 to 191.3 °C"}
{"input_smiles": "O=c1ccn2c3ccc(Cl)cc3c3cncc1c32", "melting point": "280 °C (dec.)"}
{"input_smiles": "Cc1cn2c3c(cc(OCCCO)cc3c1=O)Sc1ccc(Br)cc1-2", "melting point": "188.9 to 197.8 °C"}
{"input_smiles": "CN1c2ccccc2-n2ccc(=O)c3cccc1c32", "melting point": "232.8 to 234.5 °C"}
{"input_smiles": "COc1cc2c3c(c1)c(=O)c(Cc1cccnc1)cn3-c1cc(Br)ccc1O2", "melting point": "277.1 to 280.3 °C"}
{"input_smiles": "O=c1c(Cc2cccnc2)cn2c3c(cc(O)cc13)Sc1ccc(Br)cc1-2", "melting point": "297.4 °C (dec.)"}
{"input_smiles": "CC(=O)N1c2ccccc2-n2ccc(=O)c3cccc1c32", "melting point": "275 °C (dec.)"}
{"input_smiles": "O=c1c(Cc2cccnc2)cn2c3c(cc(OCCCO)cc13)Sc1cc(Br)ccc1-2", "melting point": "215.7 to 218.4 °C"}
{"input_smiles": "COc1cc2c3c(c1)c(=O)c(Cc1cncnc1)cn3-c1cc(Br)ccc1S2", "melting point": "206.6 to 210.7 °C"}
{"input_smiles": "COc1cc2c3c(c1)c(=O)c(Cc1ccccc1)cn3-c1cc(Br)ccc1S2", "melting point": "218.1 to 219.3 °C"}
{"input_smiles": "O=c1c(Cc2cccnc2)cn2c3cc(Br)ccc3c(=O)c3cc(OCc4cccnc4)cc1c32", "melting point": "262.4 to 264.6 °C"}
{"input_smiles": "O=c1c(Cc2cccnc2)cn2c3cc(Br)ccc3c(=O)c3cc(OCCCO)cc1c32", "melting point": "165 °C (dec.)"}
{"input_smiles": "O=c1c(Cc2cccnc2)cn2c3c(cc(OCc4ccncc4)cc13)Sc1ccc(Br)cc1-2", "melting point": "194.2 to 196.1 °C"}
{"input_smiles": "CS(=O)(=O)O.CS(=O)(=O)O.O=c1c(Cc2cccnc2)cn2c3c(cc(OCc4cccnc4)cc13)Sc1ccc(Br)cc1-2", "melting point": "238.7 to 242.3 °C"}
{"input_smiles": "O=c1c(Cc2ccccc2)cn2c3c(cc(O)cc13)Sc1ccc(Br)cc1-2", "melting point": "268.1 to 274.3 °C"}
{"input_smiles": "COc1cc2c3c(c1)c(=O)c(C)cn3-c1cc(Br)ccc1S2", "melting point": "231.7 to 233.7 °C"}
{"input_smiles": "COc1cc2c3c(c1)c(=O)c(Cc1cccnc1)cn3-c1ccc(Br)cc1S2", "melting point": "137.3 to 138.1 °C"}
{"input_smiles": "O=c1c(Cc2ccccc2)cn2c3c(cc(OCCCO)cc13)Sc1ccc(Br)cc1-2", "melting point": "152 to 168.3 °C"}
{"input_smiles": "O=c1ccn2c3c(cc(Cl)cc13)Oc1cc(Cl)ccc1-2", "melting point": "> 300 °C"}
{"input_smiles": "O=c1ccn2c3c(cc(Cl)cc13)Sc1cc(Cl)ccc1-2", "melting point": "> 300 °C"}

----------
Assay: in vivo
Settings: male, Wistar, rat, plasma, inhaled or intranasal, 0.3 mg/kg
measurement_type: Tmax

{"compound": "CS(=O)(=O)O.CS(=O)(=O)O.O=c1c(Cc2cccnc2)cn2c3c(cc(OCc4cccnc4)cc13)Sc1ccc(Br)cc1-2 [Example 81]", "reported_result": "12 to 30 min"}
